- Tested on: M14
- assayRemarks: NCI tumour cell line growth inhibition, 48 h
Counter-ions that a name gives are not always drawn. Activity calls are given as the source filed them. Cut-off read from the data, not from the text of the source: active = GI50 up to about 1.1 µM and inactive = higher.
Classes used: YES for active, NO for inactive

molecule	categoryLabel
Cc1ccc(S(=O)(=O)N/N=C2\CCCCC23CCC(=O)NC3)cc1 (configuration not stated)	NO
CCOC(=O)C1=C(C)N(NC(N)=O)C2(N)N(NC(N)=O)C(C)=C(C(=O)OCC)C12C#N (configuration not stated)	NO
Cc1ccc(NC(=O)OCC(COc2ccc(Cl)cc2Cl)OC(=O)Nc2ccc(C)cc2)cc1 (configuration not stated)	NO
Cc1c(-c2coc(-c3ccc([N+](=O)[O-])cc3)n2)c(=O)n(-c2ccccc2)n1C	NO
N[C@@H](Cc1ccc(N(CCCl)CCCl)cc1)C(=O)O [MELPHALAN HYDROCHLORIDE]	NO
O=C(O)CC(NC(=O)/C(=C/c1ccccc1O)NC(=O)c1ccccc1)C(=O)O (configuration not stated)	NO
C[C@]12CC[C@@H]3c4ccc(O)cc4CC[C@H]3[C@@H]1CC[C@@H]2OC(=O)CCC1CCCC1 [ESTRADIOL CYPIONATE]	NO
Nc1ncc2ncn(C3CCC(CO)O3)c2n1 (configuration not stated)	NO
Cc1ccc(S(=O)(=O)NC(=N)N(C)N=O)cc1	NO
CCN(CC)CC[S+]([O-])c1c2cc(OC)ccc2nc2ccc(OC)cc12 (configuration not stated)	NO
COc1ccc(/N=N/C(=NNC(=O)c2ccc(C)cc2)c2ccc(N(C)C)cc2)cc1	NO
CN(C)c1ccc(/C=c2/c3ccccc3n3c2cc(/C=C/c2ccccc2)[n+]3C)cc1	YES
O=c1c(-c2ccccc2Cl)coc2cc(F)ccc12	NO
CCOc1ccc(NC(=O)C2=C(C)NC(C)=C(C(=O)Nc3ccc(OCC)cc3)C2c2ccc([N+](=O)[O-])cc2)cc1	NO
COc1ccccc1NC(=O)CC(=O)n1nc(C)c(/N=N/c2ccccc2C(=O)O)c1C	NO
COC1(CC[C@@H](C)COC2OC(CO)C(O)C(O)C2O)O[C@H]2C[C@H]3[C@@H]4CC=C5C[C@@H](OC6OC(CO)C(OC7OC(C)C(O)C(O)C7O)C(O)C6OC6OC(C)C(O)C(O)C6O)CC[C@]5(C)[C@H]4CC[C@]3(C)[C@H]2[C@@H]1C (some centres not stated)	NO
COc1ccccc1NC(=S)Nc1cc(C)ccn1	NO

----------
Here, each record is paired with measured GI50 data.
- System: LOX IMVI
- assayRemarks: NCI tumour cell line growth inhibition, 48 h
The source made the active and inactive calls. Rule as the data show it: active = GI50 up to about 1.1 µM and inactive = higher.

compound	measuredTarget	GI50
CC(=O)N1CCN(C=S)CC1	LOX IMVI	> 100 µM (inactive)
Cc1ccc(/C=C/C(=O)c2cccc3ccccc23)cc1	LOX IMVI	> 10 µM (inactive)
Cn1nc2ccc3nccc(N4CCN(CCO)CC4)c3c2n1	LOX IMVI	0.371 µM (active)
[N-]=[N+]=C(C(=O)OCC#CCOC(=O)C(=[N+]=[N-])S(=O)(=O)c1ccccc1)S(=O)(=O)c1ccccc1	LOX IMVI	> 10 µM (inactive)
CCN(CC)CC(C(=O)Nc1c(C)cccc1C)/C(C)=N\NC(=O)c1ccncc1 (stereo not drawn)	LOX IMVI	> 100 µM (inactive)
O=c1oc2nc(-c3ccccc3)cc(C(F)(F)F)c2n1Cc1ccccc1	LOX IMVI	9.71 µM (inactive)
O=C(Nc1ccccc1-c1nn(C(=S)Nc2ccccc2)c(=S)n(C(=S)Nc2ccccc2)c1=O)C(F)(F)F	LOX IMVI	19.8 µM (inactive)
NCCCN(CCCCN(CCCN)Cc1ccccc1)Cc1ccccc1	LOX IMVI	19.3 µM (inactive)

----------
- Tested on: SF-268
- assayRemarks: NCI tumour cell line growth inhibition, 48 h
The source made the active and inactive calls. No stated cut-off is given here; in the data, active = GI50 up to about 1.1 µM and inactive = higher.
Classes used: label 1 = active, label 0 = inactive

compound	categoryLabel
COc1ccc(/C=C2\N=C(SC)NC2=O)cc1	label 0
COc1cc(OC)c(/C=N\Nc2nc3ccccc3c(=O)n2-c2ccccc2)c(OC)c1	label 0
CC(/C=N\NC(=S)N(C)C)=N/NC(=S)N(C)C	label 1
COC(=O)c1nc(NC#N)nc(O)c1C	label 0
C=C(C)CCC1C=[N+]([O-])OC(C)(C)C1(C)C (configuration not stated)	label 0
Cc1ccnc2[nH]c3ccccc3c(=O)c12	label 0
CC(=O)Oc1ccc2cc(Oc3ccccc3)c(=O)oc2c1	label 0
N=C(N)NNC(=O)C(=O)O	label 0
O=c1c(O)c(-c2cc(O)c(O)c(O)c2)oc2cc(O)cc(O)c12	label 0
Cc1cc([N+](=O)[O-])c(C)c(Br)c1C	label 0
CCOP(=O)(OCC)c1ccc(=O)[nH]c1-c1cccs1	label 0
Oc1c(Cl)cc2cc1-c1cc(cc(Cl)c1O)CCc1c(cc(Cl)c(O)c1Cl)-c1cc(Cl)c(c(Cl)c1O)/C=C\2	label 0
CC1=C(OC2OC(CO)C(O)C(O)C2O)C(=O)C[C@H]2C1=CC[C@@H]1[C@@]2(C)C(=O)C[C@]2(C)[C@@H]([C@@](C)(O)C(=O)CCC(C)(C)O)[C@H](O)C[C@@]12C (some centres not stated)	label 0
COc1cc(C=C2C(=O)NC(=O)NC2=O)cc(OC)c1OC	label 0
CC(=O)C(C(=O)c1ccc(C)cc1)[C@@H]1OC(C)(C)O[C@@H]1[C@H]1COC(C)(C)O1 (some centres not stated)	label 0
CCOC(=O)Nn1cnnc1Cc1ccccc1	label 0
CC(=O)OC(C[C@H](C)[C@@H]1CC[C@]2(C)C3=CCC4C(C)(C)C(=O)CC[C@]4(C)C3CCC12C)C1OC1(C)C (some centres not stated)	label 0

----------
- Tested on: HCT-116
- assayRemarks: NCI tumour cell line growth inhibition, 48 h
Active and inactive are the calls of the source. Cut-off read from the data, not from the text of the source: active = GI50 up to about 1.1 µM and inactive = higher.
Classes used: 1 (yes) = active, 0 (no) = inactive

compound	categoryLabel
CCNC(=S)N/N=C/c1cc(OC)ccc1O	0 (no)
CCCCc1c2c(c(C)c3c1C(=O)OC3)Oc1ccccc1O2	1 (yes)
CN(C)CCCN1CCc2c([nH]c3ccccc23)C1c1cccnc1 (stereo not drawn)	0 (no)
CC(=O)NC1=C(Nc2ccc(C)cc2)C(=O)c2ccccc2C1=O	0 (no)
Clc1ccc(SCCCCCCCCCCSc2ccc(Cl)cc2)cc1	0 (no)
CC1(C)C(=O)C2(OS(=O)(=O)C(F)(F)F)CCC1C2 (stereo not drawn)	0 (no)
CCCCOC(=O)C1CN2C(=NC1(C(F)(F)F)C(F)(F)F)Sc1ccccc12 (stereo not drawn)	0 (no)
CCN(CC)CC(C(=O)Nc1c(C)cccc1C)/C(C)=N\NC(=O)c1ccncc1 (stereo not drawn)	0 (no)

Origin of the recorded values: ChEMBL document CHEMBL1201862
